Tested on: Aβ 40 in conditioned medium of cells stably expressing Amyloid Precursor Protein (APP)
Protocol: In vitro BACE cell-based assay (Aβ 40 sandwich ELISA)
Test Settings: average IC50, HEK cell assay, Aβ 40 readout
Parameter: pIC50
Answers are plain numbers, as −log10 of the molar value.

Q. Record request: pIC50 value, item CC1(C)C(N)=N[C@]2(CF)c3cc(Nc4nccc5cc(Cl)cnc45)ccc3OCC[C@@H]2S1(=O)=O [Example 154]
A. 7.49

----------
Subject Of Test: Beta Secretase enzyme (BACE) (Homo sapiens)
Protocol: In vitro enzymatic BACE FRET assay
Format: biochemical
Test Settings: average IC50; read-out: BACE1 FRET assay IC50
pIC50: −log10 of the molar value.
Assign YES whenever pIC50 does not fall below 8; assign NO whenever it does.

Solved entries (count: 3):
Compound: CC1(C)C(N)=N[C@]2(C)c3cc(NC(=O)c4ccc(C5CC5)cn4)ccc3OCC[C@H]2S1(=O)=O [Example 179]
Group: NO
--
Compound: CC1(C)C(N)=N[C@]2(C)c3cc(NC(=O)c4ncc(Cl)cc4Cl)ccc3CCC[C@H]2S1(=O)=O [Example 44]
Group: YES
--
Compound: COc1cnc(C(=O)Nc2cnc3c(c2)[C@@]2(C)N=C(N)C4(CCC4)S(=O)(=O)[C@@H]2CCO3)c(C)c1 [Example 64]
Group: NO

Q. Quick check, pIC50 >= 8? Cc1cc(Cl)cnc1C(=O)Nc1ccc2c(c1)[C@@]1(C)N=C(N)C(C)(C)S(=O)(=O)[C@@]1(C)CCO2 [Example 26]
A. YES

Q. # bool: pIC50 of CC#CCOc1cnc(C(=O)Nc2ccc3c(c2)[C@@]2(C)N=C(N)C(C)(C)S(=O)(=O)[C@@H]2C[C@H](C)O3)cn1 [Example 51] >= 8
A. YES

Q. Hi team, for CC1(C)C(N)=N[C@]2(C)c3cc(Nc4ncc(F)c5cc(C#N)cnc45)ccc3OCC[C@H]2S1(=O)=O [Example 171] , is the recorded pIC50 at or above 8?
A. YES

Q. Is it the case that Cc1cc(C#N)cnc1C(=O)Nc1ccc2c(c1)[C@@]1(C)N=C(N)C(C)(C)S(=O)(=O)[C@@H]1C[C@H](C)O2 [Example 57] has pIC50 reaching or exceeding 8?
A. YES

Q. Could you please find out whether Cc1cc(Cl)cnc1C(=O)Nc1ccc2c(c1)[C@@]1(C)N=C(N)C(C)(C)S(=O)(=O)[C@H]1C[C@@H](C)O2 [Example 181] has pIC50 that meets 8 or exceeds it?
A. YES

Q. Check if pIC50 >= 8 (inclusive). Item: Cc1c(C(=O)Nc2ccc3c(c2)[C@@]2(C)N=C(N)C(C)(C)S(=O)(=O)[C@@H]2CCC3)nc2ccc(Cl)cn12 [Example 49]
A. NO

Q. Decide: is the reported value of pIC50 for COc1cnc(C(=O)Nc2ccc3c(c2)[C@@]2(C)N=C(N)C(C)(C)S(=O)(=O)[C@@H]2CCC3)c(C)c1 [Example 42] equal to or greater than 8?
A. NO

Q. Determine whether this compound has pIC50 no lower than 8: CC1(C)C(N)=N[C@]2(C)c3cc(NC(=O)c4cnc(OCC(F)(F)F)cn4)ccc3OCC[C@H]2S1(=O)=O [Example 169]
A. YES

----------
Subject Of Test: Beta Secretase enzyme (BACE) (Homo sapiens, UniProt P56817)
Sequence (P56817 46-501): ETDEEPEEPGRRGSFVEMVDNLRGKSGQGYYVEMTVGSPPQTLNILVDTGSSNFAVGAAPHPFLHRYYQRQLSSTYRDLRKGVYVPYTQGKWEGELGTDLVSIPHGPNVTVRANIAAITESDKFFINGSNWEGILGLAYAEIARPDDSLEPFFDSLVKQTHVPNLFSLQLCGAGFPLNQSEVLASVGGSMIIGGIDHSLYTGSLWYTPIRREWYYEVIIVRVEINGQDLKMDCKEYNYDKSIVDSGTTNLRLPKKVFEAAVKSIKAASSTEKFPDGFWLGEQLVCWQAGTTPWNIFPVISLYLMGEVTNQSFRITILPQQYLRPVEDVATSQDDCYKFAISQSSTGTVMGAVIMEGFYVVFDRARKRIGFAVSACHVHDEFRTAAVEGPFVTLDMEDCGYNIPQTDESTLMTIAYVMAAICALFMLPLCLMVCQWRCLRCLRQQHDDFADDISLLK
Protocol: In vitro enzymatic BACE FRET assay
Format: biochemical
Test Settings: average IC50; read-out: BACE1 FRET assay IC50
Answer each item with its documented pIC50.
Numbers only, as −log10 of the molar value.

Guide cases for pIC50, answers given:
Sample Smiles: Cc1cc(C#N)cnc1C(=O)Nc1ccc2c(c1)[C@@]1(C)N=C(N)C(C)(C)S(=O)(=O)[C@H]1CCC2
pIC50: 7.44

Sample Smiles: COc1cnc2c(Nc3ccc4c(c3)[C@@]3(C)N=C(N)C(C)(C)S(=O)(=O)[C@@H]3CCO4)ncnc2c1
pIC50: 8.15

Sample Smiles: COc1cnc(C(=O)Nc2ccc3c(c2)[C@@]2(C)N=C(N)C(C)(C)S(=O)(=O)[C@@H]2CCO3)cn1
pIC50: 7.77

Sample Smiles: Cc1cc(Cl)cnc1C(=O)Nc1ccc2c(c1)[C@@]1(C)N=C(N)C(C)(C)S(=O)(=O)[C@@H]1C[C@@H](C)O2
pIC50: 8.52

Sample Smiles: COc1cnc2c(Nc3ccc4c(c3)[C@@]3(C)N=C(N)C(C)(C)S(=O)(=O)[C@@H]3CCC4)nccc2n1
pIC50: 7.39

// batch mode: one pIC50 value per listed entry
1. CC1(C)C(N)=N[C@]2(C)c3cc(NC(=O)c4ncc(Cl)cc4Cl)ccc3CCC[C@@H]2S1(=O)=O
2. Cc1cc(COc2cnc(C(=O)Nc3ccc4c(c3)[C@@]3(C)N=C(N)C(C)(C)S(=O)(=O)[C@@H]3C[C@H](C)O4)cn2)on1

A.
1: 7.21; 2: 8.15
